Tested on: HT29 (colon adenocarcinoma)
Experiment: in vitro cytotoxicity / proliferation, HT29
Format: cell-based, human
Conditions: read-out: IC50 (inhibits proliferation of 50% of cells)
quantity measured: IC50 (µM)

>>> reported("N.N.[Cl][Pt][Cl] [cisplatin, reference compound]")
9.23

---

Measured pIC50, listed per entry for reference.
Test: ABTS radical assay (free radical scavenging)
Format: biochemical
Conditions: ABTS^•+ diluted with 5 mM PBS pH 7.4, absorbance at 30 min; read-out: IC50 (ABTS radical scavenging activity)
pIC50: −log10 of the molar value.
quantity measured: pIC50

>>> reported("OCCc1ccccn1.OCCc1ccccn1.[Cu+2].[Cu+2].[O-]CCc1ccccn1.[O-]CCc1ccccn1.[O-][Cl+3]([O-])([O-])[O-].[O-][Cl+3]([O-])([O-])[O-] [complex 3]")
3.21
>>> reported("OCc1ccccn1 [2-(HOCH2)py, 2-(hydroxymethyl)pyridine, reference compound]")
2.42
>>> reported("OC(O)(c1ccccn1)c1ccccn1.OC(O)(c1ccccn1)c1ccccn1.[Cu+2].[O-][Cl+3]([O-])([O-])[O-].[O-][Cl+3]([O-])([O-])[O-] [complex 5, [Cu(py2C(OH)2)2](ClO4)2]")
1.61
>>> reported("OCCc1ccccn1 [2-(HOCH2CH2)py, 2-(hydroxyethyl)pyridine, reference compound]")
2.15
